# experiment.summary: PFAS levels in serum samples of airport employees (LC/MS/MS)
# reported.conditions: all 26 airport employees
endpoint.name: Serum level in the first samples, median (range)

The following compounds have reported results that may help.
compound	observed.result
O=S(=O)(O)C(F)(F)C(F)(F)C(F)(F)C(F)(F)C(F)(F)C(F)(F)C(F)(F)F [PFHpS, perfluoroheptane sulfonic acid]	1.3 (0.28–6.2) ng/mL
O=C(O)C(F)(F)C(F)(F)C(F)(F)C(F)(F)C(F)(F)F [PFHxA, perfluorohexanoic acid]	0.38 (0.16–1.1) ng/mL
O=S(=O)(O)C(F)(F)C(F)(F)C(F)(F)C(F)(F)C(F)(F)C(F)(F)F [PFHxS, perfluorohexane sulfonic acid]	76 (17–402) ng/mL
O=S(=O)(O)C(F)(F)C(F)(F)C(F)(F)C(F)(F)F [PFBS, perfluorobutane sulfonic acid]	0.33 ( <LOD –1.3) ng/mL
O=S(=O)(O)C(F)(F)C(F)(F)C(F)(F)C(F)(F)C(F)(F)C(F)(F)C(F)(F)C(F)(F)F [L-PFOS, linear perfluorooctane sulfonic acid]	9.5 (5.4–28) ng/mL

[Q] Give a short answer stating reported Serum level in the first samples, median (range) for O=C(O)C(F)(F)C(F)(F)C(F)(F)C(F)(F)C(F)(F)C(F)(F)C(F)(F)F [PFOA, perfluorooctanoic acid] .
[A] 9.1 (2.9–31) ng/mL

[Q] Give a short answer stating reported Serum level in the first samples, median (range) for O=C(O)C(F)(F)C(F)(F)C(F)(F)C(F)(F)C(F)(F)C(F)(F)F [PFHpA, perfluoroheptanoic acid] .
[A] 0.46 (0.07–2.2) ng/mL

* * *

# experiment.summary: PFAS levels in serum samples of airport employees (LC/MS/MS)
# reported.conditions: 2nd sampling (October 2018), count 17
Threshold 10. Serum PFAS level, Median below it: Condition met. Serum PFAS level, Median at it or above: Condition not met.

Example entries and their recorded answers appear below.
compound	label
O=C(O)C(F)(F)C(F)(F)C(F)(F)C(F)(F)C(F)(F)F [PFHxA, perfluorohexanoic acid]	Condition met
O=S(=O)(O)C(F)(F)C(F)(F)C(F)(F)C(F)(F)C(F)(F)C(F)(F)F [PFHxS, perfluorohexane sulfonic acid]	Condition not met
O=C(O)C(F)(F)C(F)(F)C(F)(F)C(F)(F)C(F)(F)C(F)(F)F [PFHpA, perfluoroheptanoic acid]	Condition met

[Q] Strictly below 10 in Serum PFAS level, Median? O=C(O)C(F)(F)C(F)(F)C(F)(F)C(F)(F)C(F)(F)C(F)(F)C(F)(F)F [PFOA, perfluorooctanoic acid]
[A] Condition not met

* * *

Reported Serum PFAS level, 75 percentile values for a set of molecules
# experiment.summary: PFAS levels in serum samples of airport employees (LC/MS/MS)
# reported.conditions: 2nd sampling (October 2018), count 17
Answer with the value's number alone.

The following molecules have reported results that may help.
molecule	Serum PFAS level, 75 percentile
O=S(=O)(O)C(F)(F)C(F)(F)C(F)(F)C(F)(F)C(F)(F)C(F)(F)F	144
O=C(O)C(F)(F)C(F)(F)C(F)(F)C(F)(F)C(F)(F)F	0.51
O=S(=O)(O)C(F)(F)C(F)(F)C(F)(F)C(F)(F)C(F)(F)C(F)(F)C(F)(F)C(F)(F)F	16

Now take the following molecule into account.
[Q] Give a short answer stating reported Serum PFAS level, 75 percentile for O=S(=O)(O)C(F)(F)C(F)(F)C(F)(F)C(F)(F)F .
[A] 0.31
